# SUBJECT OF TEST: T1, human MSLN-R1-his protein (human, UniProt Q13421 296-390)
# T1 construct: Made in HEK293E cells, purified on nickel column; also called hMSLN-R1-his; human MSLN-R1 protein; not shown: His tag
# T1 chain: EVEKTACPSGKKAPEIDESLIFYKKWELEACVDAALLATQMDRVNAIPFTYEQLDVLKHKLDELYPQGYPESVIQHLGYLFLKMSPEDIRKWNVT
# TEST DESCRIPTION: ELISA, coated antigen, antibody 0.002 nM
PROPERTY MEASURED: OD450

BINDER	PROPERTY MEASURED	MEASURED RESULT
S009-F7.67.12 chimeric antibody (antibody, human IgG1, kappa, V domains shown, Human-murine chimeric antibody, human IgG1/kappa constant regions) VH: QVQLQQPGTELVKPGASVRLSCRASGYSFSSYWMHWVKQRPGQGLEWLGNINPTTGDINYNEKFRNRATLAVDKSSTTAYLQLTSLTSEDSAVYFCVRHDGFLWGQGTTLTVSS VL: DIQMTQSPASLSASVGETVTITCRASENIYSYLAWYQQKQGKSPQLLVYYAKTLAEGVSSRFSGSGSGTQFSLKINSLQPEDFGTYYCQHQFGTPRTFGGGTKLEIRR	OD450	0.05
S009-F7.12.13 chimeric antibody (antibody, human IgG1, kappa, V domains shown, Human-murine chimeric antibody, human IgG1/kappa constant regions) VH: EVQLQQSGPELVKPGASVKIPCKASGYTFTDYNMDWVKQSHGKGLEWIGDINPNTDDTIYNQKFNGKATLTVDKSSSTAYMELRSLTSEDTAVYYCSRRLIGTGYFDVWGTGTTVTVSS VL: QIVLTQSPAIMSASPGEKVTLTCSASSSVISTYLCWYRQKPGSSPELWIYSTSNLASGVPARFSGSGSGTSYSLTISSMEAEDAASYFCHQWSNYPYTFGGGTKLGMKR	OD450	0.05
S009-F7.69.8 chimeric antibody (antibody, human IgG1, kappa, V domains shown, Human-murine chimeric antibody, human IgG1/kappa constant regions) VH: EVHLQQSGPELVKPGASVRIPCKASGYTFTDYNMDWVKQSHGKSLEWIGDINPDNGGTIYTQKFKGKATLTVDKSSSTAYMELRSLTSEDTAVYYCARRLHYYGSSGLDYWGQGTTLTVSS VL: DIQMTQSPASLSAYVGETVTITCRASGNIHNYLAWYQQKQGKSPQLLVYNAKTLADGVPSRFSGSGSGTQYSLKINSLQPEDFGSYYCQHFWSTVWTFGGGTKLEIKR	OD450	0.05
